Target chain: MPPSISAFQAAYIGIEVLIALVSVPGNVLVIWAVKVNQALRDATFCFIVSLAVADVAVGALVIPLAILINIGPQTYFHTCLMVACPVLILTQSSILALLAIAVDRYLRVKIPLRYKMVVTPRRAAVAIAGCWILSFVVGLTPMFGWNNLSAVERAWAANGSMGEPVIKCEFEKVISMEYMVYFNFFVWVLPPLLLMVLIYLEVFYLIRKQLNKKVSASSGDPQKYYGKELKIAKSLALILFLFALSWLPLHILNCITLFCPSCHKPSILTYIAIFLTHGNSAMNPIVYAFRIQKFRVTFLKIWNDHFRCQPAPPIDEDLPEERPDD
Exercise: for every item that follows, state its recorded AC50.

Problem: Any idea what its AC50 is? The compound is COCC(=O)O[C@]1(CCN(C)CCCc2nc3ccccc3[nH]2)CCc2cc(F)ccc2[C@@H]1C(C)C
Solution: > 30 µM

Problem: Query: AC50; subject: CCCCCCO[C@@H](C)c1cccc(-c2csc(NC(=O)c3cc(Cl)c(/C=C(\C)C(=O)O)c(Cl)c3)n2)c1OC
Solution: > 30 µM

Problem: Item CC1(C)S[C@@H]2[C@H](NC(=O)[C@H](NC(=O)c3cnc4cccnc4c3O)c3ccccc3)C(=O)N2[C@H]1C(=O)O has what recorded AC50?
Solution: > 30 µM

Problem: Quick check: AC50 of O=C(Cc1cccs1)N[C@@H]1C(=O)N2C(C(=O)[O-])=C(C[n+]3ccccc3)CS[C@H]12 ?
Solution: > 30 µM

Problem: What does the record list as AC50 for OC(CN1CCCCC1)c1cc(-c2ccccc2)on1 (configuration not stated) ?
Solution: > 30 µM

Problem: For the compound O=C(O)[C@@H](S)[C@@H](S)C(=O)O , what AC50 is on record?
Solution: > 30 µM

Problem: I have this compound here, CC(=O)O[C@]1(C(C)=O)CC[C@H]2[C@@H]3CCC4=CC(=O)CCC4=C3[C@@H](c3ccc(N(C)C)cc3)C[C@@]21C [ULIPRISTAL ACETATE] , and I need its recorded AC50.
Solution: > 30 µM

* * *

Can you tell me AC50 for the items I'm about to list?
- tested_on: 5-hydroxytryptamine receptor 2B (Homo sapiens)
- Sequence (P41595 whole entry): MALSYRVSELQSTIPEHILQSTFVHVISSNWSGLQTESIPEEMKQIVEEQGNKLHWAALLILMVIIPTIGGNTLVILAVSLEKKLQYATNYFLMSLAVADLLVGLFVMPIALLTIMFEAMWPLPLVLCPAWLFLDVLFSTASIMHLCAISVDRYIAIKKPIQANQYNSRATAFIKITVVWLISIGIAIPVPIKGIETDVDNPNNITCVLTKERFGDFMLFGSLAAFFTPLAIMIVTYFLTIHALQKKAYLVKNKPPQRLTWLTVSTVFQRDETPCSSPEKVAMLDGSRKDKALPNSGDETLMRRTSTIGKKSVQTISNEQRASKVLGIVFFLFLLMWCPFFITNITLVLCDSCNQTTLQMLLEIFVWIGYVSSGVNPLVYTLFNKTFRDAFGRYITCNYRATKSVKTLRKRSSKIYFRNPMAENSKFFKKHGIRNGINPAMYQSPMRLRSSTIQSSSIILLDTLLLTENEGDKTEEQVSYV
- Assay type: functional, cell-based

Problem: Any idea what AC50 came out for CCN(CC)CCCN(c1ccccc1)C1Cc2ccccc2C1 on 5-hydroxytryptamine receptor 2B (Homo sapiens)?
Solution: > 30 µM

Problem: # returns recorded AC50 (system: 5-hydroxytryptamine receptor 2B (Homo sapiens)) for Cc1cccc(Nc2ccncc2S(=O)(=O)NC(=O)NC(C)C)c1 [TORSEMIDE]; also: assay procedure not described here
Solution: > 10 µM

Problem: Identify the measured AC50 of CCOc1ccccc1OCCN[C@H](C)Cc1ccc(OC)c(S(N)(=O)=O)c1 for 5-hydroxytryptamine receptor 2B (Homo sapiens).
Solution: > 10 µM

Problem: Report AC50 for CCC(=O)c1ccc2c(c1)N(CC(C)N(C)C)c1ccccc1S2 (stereo not given) tested on 5-hydroxytryptamine receptor 2B (Homo sapiens). Also: assay procedure not described here.
Solution: > 10 µM

Problem: Request - read-out AC50 | tested on 5-hydroxytryptamine receptor 2B (Homo sapiens) | compound CCOCC(O)COc1ccc(NC(=O)CC[S+](C)C)cc1 (stereo not given); also: assay procedure not described here
Solution: > 30 µM

* * *

Would you kindly list AC50 for each of these compounds?
- tested_on: 5-hydroxytryptamine receptor 1A (Homo sapiens)
- Sequence (P08908 whole entry): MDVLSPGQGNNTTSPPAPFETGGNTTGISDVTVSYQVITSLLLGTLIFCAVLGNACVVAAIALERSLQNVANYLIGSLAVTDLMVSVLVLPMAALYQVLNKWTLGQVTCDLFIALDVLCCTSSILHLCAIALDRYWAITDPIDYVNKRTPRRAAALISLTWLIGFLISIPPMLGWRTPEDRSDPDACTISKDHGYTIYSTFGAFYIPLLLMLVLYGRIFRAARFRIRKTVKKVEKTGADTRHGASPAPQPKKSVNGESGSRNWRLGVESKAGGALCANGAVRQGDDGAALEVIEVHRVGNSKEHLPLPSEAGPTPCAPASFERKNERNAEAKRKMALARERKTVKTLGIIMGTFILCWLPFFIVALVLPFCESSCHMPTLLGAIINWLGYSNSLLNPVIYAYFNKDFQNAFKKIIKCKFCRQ
- Format: functional, cell-based

Problem: Looking for the measured AC50 of O=C(c1ccccc1)c1ccc2n1CCC2C(=O)O (configuration not stated) , can you help?
Solution: > 30 µM

Problem: Sample CC(C)/N=c1\cc2n(-c3ccc(Cl)cc3)c3ccccc3nc-2cc1Nc1ccc(Cl)cc1 — what was its AC50?
Solution: > 30 µM

Problem: Could you tell me which AC50 is on file for CC1NCCOC1c1ccccc1 (configuration not stated) ?
Solution: > 10 µM

Problem: # input compound: Cc1ccc(S(=O)(=O)NC(=O)N[C@H]2[C@H]3CC[C@@](C)([C@H]2O)C3(C)C)cc1 [GLIBORNURIDE] ; wanted: its AC50
Solution: > 30 µM

Problem: Requested field: AC50. Item: OCC(O)COc1ccc(Cl)cc1 (configuration not stated)
Solution: > 10 µM

Problem: # AC50 lookup, item CO/N=C(\C(=O)N[C@@H]1C(=O)N2C(C(=O)O)=C(CSc3nc(C)c(CC(=O)O)s3)CS[C@H]12)c1csc(N)n1
Solution: > 30 µM

Problem: Form field: reported AC50 of CCOCC(O)COc1ccc(NC(=O)CC[S+](C)C)cc1 (configuration not stated)
Solution: > 30 µM

Problem: Name the reported AC50 value associated with the compound NCC1(CC(=O)O)CCCCC1
Solution: > 30 µM

Problem: May I ask what AC50 has been recorded for O=C(O)c1ccc2nc(-c3cc(Cl)cc(Cl)c3)oc2c1 ?
Solution: > 30 µM

Problem: Form field: reported AC50 of CC(C)NCC(O)COc1ccc(CC(N)=O)cc1 (configuration not stated)
Solution: > 30 µM

Problem: For CC(=O)OCC1=C(C(=O)O)N2C(=O)[C@@H](NC(=O)Cc3cccs3)[C@H]2SC1 , what is its reported AC50?
Solution: > 30 µM

Problem: Any idea what AC50 was measured for OCC(CO)N[C@H]1C[C@](O)(CO)[C@@H](O)[C@H](O)[C@H]1O ?
Solution: > 30 µM

* * *

Below are AC50 values recorded for Cholecystokinin receptor type A (Homo sapiens, UniProt P32238).

Problem: Consider the compound CN(C)CCN(Cc1ccccc1)c1ccccn1 and give its measured AC50.
Solution: > 10 µM

Problem: Item CN(C)CCOC(c1ccc(Cl)cc1)c1ccccn1 (stereo not given) has what recorded AC50?
Solution: > 30 µM

Problem: Item CCC(=O)[C@@]1(C)[C@H](C)C[C@H]2[C@@H]3CCC4=CC(=O)C=C[C@]4(C)[C@H]3[C@@H](O)C[C@@]21C [RIMEXOLONE] has what recorded AC50?
Solution: > 10 µM

Problem: Returns the measured AC50 for the input compound. Input: CCN(CC)CCCN(c1ccccc1)C1Cc2ccccc2C1
Solution: > 30 µM

Problem: State the recorded AC50 for this entry: CCC1(C)CC(=O)NC1=O (stereo not given) [ETHOSUXIMIDE]
Solution: > 10 µM

Problem: Requested read-out: AC50. Entry: O=C1CN=C(c2ccccc2Cl)c2cc([N+](=O)[O-])ccc2N1
Solution: > 30 µM

Problem: Bench note: what AC50 did CN(C)CCOCC(=O)NC12CC3CC(CC(C3)C1)C2 show?
Solution: > 30 µM

Problem: Entry under review: CCC(=O)O[C@H](CC(=O)O)C[N+](C)(C)C [LEVOCARNITINE PROPIONATE] . Reported AC50?
Solution: > 30 µM

Problem: Using the record for CCN(CC)Cc1nccn1-c1ccc([N+](=O)[O-])cc1C(=O)c1ccccc1Cl , report its AC50.
Solution: > 30 µM

Problem: Request the reported AC50 associated with C[C@H](Nc1ncnc2[nH]cnc12)c1cc2cccc(Cl)c2c(=O)n1-c1ccccc1
Solution: > 30 µM

Problem: I have this compound here, O=C(O)CCCC[C@@H]1SC[C@@H]2NC(=O)N[C@@H]21 , and I need its recorded AC50.
Solution: > 10 µM

Problem: // query AC50 value for entry Nc1nc(Cl)nc2c1ncn2[C@@H]1O[C@H](CO)[C@@H](O)[C@@H]1F
Solution: > 30 µM

Problem: # lookup: AC50 of CN(C)[C@@H]1C(O)=C(C(=O)NCN2CCCC2)C(=O)[C@@]2(O)C(O)=C3C(=O)c4c(O)cccc4[C@@](C)(O)[C@H]3C[C@@H]12
Solution: > 10 µM

Problem: Form field: reported AC50 of N[C@@H](Cc1cc(I)c(Oc2cc(I)c(O)c(I)c2)c(I)c1)C(=O)O
Solution: > 30 µM

Problem: AC50 lookup needed for CCN(CC)C(C)C(=O)c1ccccc1 (stereo not given) , thanks.
Solution: > 30 µM

Problem: What value of measured AC50 is listed for NCCCNCCSP(=O)(O)O ?
Solution: > 30 µM

Problem: Using the record for CCCCC[C@H](O)CC[C@@H]1[C@H]2Cc3cccc(OCC(=O)O)c3C[C@H]2C[C@H]1O , report its AC50.
Solution: > 30 µM

Problem: What AC50 value was documented for this compound, NCC1(CC(=O)O)CCCCC1 ?
Solution: > 30 µM

Problem: Report AC50 for CC1CC(OC(=O)C(O)c2ccccc2)CC(C)(C)C1 (stereo not given) [CYCLANDELATE] please.
Solution: > 10 µM

Problem: Recorded AC50 for CCOC(=O)[C@H](CCc1ccccc1)N[C@@H](C)C(=O)N1Cc2ccccc2C[C@H]1C(=O)O , please?
Solution: > 30 µM

Problem: Any idea what AC50 was measured for C[C@]12CCC(=O)C=C1[C@@H]1C[C@@H]1[C@H]1[C@@H]3[C@@H]4C[C@@H]4[C@@]4(CCC(=O)O4)[C@@]3(C)CC[C@@H]12 ?
Solution: > 30 µM

Problem: Given the entry CCC(NC(C)C)C(O)c1ccc(O)c(O)c1 (stereo not given) , report its measured AC50.
Solution: > 30 µM

Problem: // returns reported AC50 for input CN(C)CCCC1(c2ccc(F)cc2)OCc2cc(C#N)ccc21 (stereo not given)
Solution: > 30 µM

Problem: Which AC50 is listed for CC(=O)OCC1=C(C(=O)O)N2C(=O)[C@@H](NC(=O)CSc3ccncc3)[C@H]2SC1 ?
Solution: > 10 µM

Problem: Reported AC50 for COC(=O)CCc1ccc(OCC(O)CNC(C)C)cc1 (stereo not given) : what is it?
Solution: > 30 µM

Problem: Look up AC50 for this compound: CCCO[C@H]1[C@@H]([C@@H](COCc2ccc(Cl)cc2)OCc2ccc(Cl)cc2)OC(OCC)[C@@H]1O (stereo not given in full) [CLOBENOSIDE]
Solution: > 30 µM

Problem: Name the recorded AC50 for CCOC(=O)O[C@]1(C(=O)COC(=O)CC)CC[C@H]2[C@@H]3CCC4=CC(=O)C=C[C@]4(C)[C@H]3[C@@H](O)C[C@@]21C [PREDNICARBATE] .
Solution: > 10 µM

Problem: Sample CCC(=O)c1ccc2c(c1)N(CC(C)N(C)C)c1ccccc1S2 (stereo not given) — what was its AC50?
Solution: > 10 µM

Problem: Find the recorded AC50 belonging to CN(C)CCOC(=O)C(c1ccccc1)C1(O)CCCC1 (stereo not given) [CYCLOPENTOLATE] and report it.
Solution: > 10 µM

Problem: Consider the compound CCCCOC(=O)c1ccc(N)cc1 and give its measured AC50.
Solution: > 30 µM

Problem: For the compound CN(C)CCc1c[nH]c2ccc(CS(=O)(=O)N3CCCC3)cc12 , what AC50 is on record?
Solution: > 30 µM

Problem: Please look up its AC50: CC(C)NCC(O)COc1ccc(CC(N)=O)cc1 (stereo not given)
Solution: > 30 µM

Problem: GET /values?readout=AC50&item= CCCCCCOC(=O)NC(=N)c1ccc(NCc2nc3cc(C(=O)N(CCC(=O)OCC)c4ccccn4)ccc3n2C)cc1 [DABIGATRAN ETEXILATE]
Solution: > 30 µM

Problem: // returns reported AC50 for input CO/N=C(\C(=O)N[C@@H]1C(=O)N2C(C(=O)[O-])=C(C[n+]3ccc(N)n3CCO)CS[C@H]12)c1csc(N)n1
Solution: > 30 µM

Problem: Consider the compound shown here: N=C(N)NC(=O)Cc1c(Cl)cccc1Cl What is its recorded AC50?
Solution: > 30 µM

These measurements were taken from ChEMBL document CHEMBL5291721.
